Listed below: water uptake 1 day at 80% rH values for each entry.
assay notes: Water content and hygroscopicity, open storage for 24 hours at 80% relative humidity
Format: physicochemical
protocol conditions: open storage for 24 hours at 80% relative humidity
reported endpoint: water uptake 1 day at 80% rH (%)

compound: CN(C)c1cc(NC(=O)CNC(C)(C)C)c(O)c2c1C[C@H]1C[C@H]3[C@H](N(C)C)C(O)=C(C(N)=O)C(=O)[C@@]3(O)C(O)=C1C2=O [WO 2006/128150 IV, Tigecycline]
measurement unit: %
experimental value: 0.43

compound: CN(C)c1cc(NC(=O)CNC(C)(C)C)c(O)c2c1C[C@H]1C[C@H]3[C@H](N(C)C)C(O)=C(C(N)=O)C(=O)[C@@]3(O)C(O)=C1C2=O [WO 2007/127292 II, Tigecycline]
measurement unit: %
experimental value: 0.07

compound: CN(C)c1cc(NC(=O)CNC(C)(C)C)c(O)c2c1C[C@H]1C[C@H]3[C@H](N(C)C)C(O)=C(C(N)=O)C(=O)[C@@]3(O)C(O)=C1C2=O [WO 2006/128150 I, Tigecycline]
measurement unit: %
experimental value: 3.00

compound: CN(C)c1cc(NC(=O)CNC(C)(C)C)c(O)c2c1C[C@H]1C[C@H]3[C@H](N(C)C)C(O)=C(C(N)=O)C(=O)[C@@]3(O)C(O)=C1C2=O [WO 2007/127292 I, Tigecycline]
measurement unit: %
experimental value: 6.26

compound: CN(C)c1cc(NC(=O)CNC(C)(C)C)c(O)c2c1C[C@H]1C[C@H]3[C@H](N(C)C)C(O)=C(C(N)=O)C(=O)[C@@]3(O)C(O)=C1C2=O [X, Tigecycline]
measurement unit: %
experimental value: 0.57
